Data credit: ChEMBL document CHEMBL3988442

Entries and their measured Percent Effect follow.
molecular target: Aspartate--tRNA(Asp/Asn) ligase (Mycobacterium tuberculosis (strain ATCC 25618 / H37Rv)); assay: Assay for Asp RNA synthetase-1 from Mycobacterium tuberculosis; type: functional; set-up: scale not given: in the data most compounds retested in dose-response had high values; details: 30 µM
measure: Percent Effect

> print(dat)
                                    compound  reading
 1  Cn1cc(C2CCCN2C(=O)Cc2n[nH]c3ccccc23)cn1 (stereo unspecified)   -9.51%
 2  CCc1ccc(CN2CC[C@H]3C[C@H](c4nnc(C)[nH]4)O[C@@H]3C2)o1   0.228%
 3  Cc1nc(C)n(CC2CCCCN2Cc2nnc(C3CC3)o2)n1 (stereo unspecified)    1.18%
 4     O=C1COC2(CCN(Cc3cccs3)CC2)CN1c1ccccc1   -2.62%
 5         CN(C)c1ccc(C(=O)NCC2(O)CCOCC2)cc1   -2.13%
 6  Cc1cc(C(=O)N2CC[C@@H]3CN(S(C)(=O)=O)CCO[C@@H]3C2)c(C)o1    2.19%
 7    CCc1nc(CN2CCCN(C(=O)c3cnc[nH]3)CC2)cs1   -2.77%
 8   Cc1nc(C)c(C(=O)NCCNC(=O)Cc2cccc(F)c2)s1    4.17%
 9   CCCc1cc(C(=O)N(C)Cc2cnc3ccccc3n2)n(C)n1     8.2%
10  CC(C)[C@H](NC(=O)NC1CCS(=O)(=O)C1)C(=O)NCc1ccccc1Cl (stereo partly specified)   0.145%
11  CCc1nc(CN(C)C2CCN(CCNS(=O)(=O)CC)C2)no1 (stereo unspecified)    5.16%
